The origin of these recorded values is PubChem BioAssay AID1159580.

- protocolDescription: chemical genetic growth profiling, strain panel (AID 1159580);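 also: tested at 20 µM; growth read once vehicle control cultures reached saturation at 30 °C; lower values mean less growth of the strain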
- recordedConditions: S. cerevisiae deletion strains, growth OD, locus YHR030C, strain SLT2
Hit rate of the full screen: of about 5,500 compounds, about 2,000 (36%) were called active. Another 18% or so got no clear call; they are omitted. Rule as the data show it: active = normalized growth mostly below about 0.91 (no sharp cut-off); inconclusive = no clear call, values can overlap the other calls; inactive = mostly above about 0.92. Some of the results follow.
Answer with one of the outcomes given here: YES for active, NO for inactive

compound	cat
CC(=O)Oc1ccc2c(c1C(C)C)CCC1C(C)(C)CCC[C@]21C (stereo partly specified)	NO
CC(C)c1c(O)ccc2c1CCC1[C@@](C)(CO)CCC[C@]21C (stereo partly specified)	NO
CCCCCCCCCCCC1=C(O)C(=O)C=C(O)C1=O	YES

## Input // return assay outcome for Brc1ccc(-c2ccn[nH]2)s1
## Output NO

## Input // return assay outcome for COC(=O)[C@]1(C)CCC[C@]2(C)c3ccc(C(C)C)cc3C(=O)CC12 (stereo partly specified)
## Output NO

## Input // return assay outcome for Cn1c2c(c3c1CCCC3)CCCC2
## Output NO
